tested-on: Dimer of Gag-Pol polyprotein [489-587] (Human immunodeficiency virus 1, UniProt P12497)
Construct: 489-587
experimental-details: Protease Inhibition Assay
condition-description: pH 4.7; 37 °C
reported-metric: pKi
Numbers only, as −log10 of the molar value.

Item: CC(C)CC(SC1CCCC1)c1c(O)cc(-c2ccccc2)oc1=O (racemic) | System: Dimer of Gag-Pol polyprotein [489-587] (Human immunodeficiency virus 1, UniProt P12497) | pKi: 7.48

----------
tested-on: Dimer of Gag-Pol polyprotein [489-587] (Human immunodeficiency virus 1, UniProt P12497)
Construct: 489-587
experimental-details: Protease Inhibition Assay
condition-description: pH 4.7; 37 °C
Protocol: For determination of IC50 values, HIV-1 protease was added to assay buffer containing inhibitor and the substrate (H-His-Lys-Ala-Arg-Val-Leu- (p-NO2) Phe-Glu-Ala-norleucine-Ser-NH2). The Leu- (p-NO2) Phe bond of the substrate was cleaved by the enzyme, and the substrate and products were separated by reversed-phase HPLC. Absorbance was measured at 220 nm, peak areas were determined, and percentage conversion to product was calculated.
reported-metric: IC50 (nM)
Numbers only, in nM.

Examples with their reported IC50 follow.
• O=c1oc(-c2ccccc2)cc(O)c1C(Sc1ccccc1)c1ccccc1 (racemic) = 780
• O=c1oc(-c2ccccc2)cc(O)c1C(SC1CCCC1)C1CCCC1 (racemic) = 225
• O=c1oc(-c2ccccc2)cc(O)c1C(SCc1ccccc1)c1ccccc1 (racemic) = 480
• O=c1oc(-c2ccccc2)cc(O)c1C(Sc1ccccc1)c1ccc2ccccc2c1 (racemic) = 7820
• O=c1oc(-c2ccccc2)cc(O)c1C(Sc1ccc2ccccc2c1)c1ccccc1 (racemic) = 2450

Below is a list of compounds. For each, state its recorded IC50.
1. O=c1oc(-c2ccccc2)cc(O)c1C(CC1CC1)SCc1ccccc1 (racemic)
2. O=c1oc(-c2ccccc2)cc(O)c1CSc1ccccc1

output:
1. 84
2. 84300

Below is a list of compounds. For each, state its recorded IC50.
1. O=c1oc(-c2ccccc2)cc(O)c1C(SC1CCCCC1)c1ccccc1 (configuration not stated)
2. O=c1oc(-c2ccccc2)cc(O)c1C(CC1CC1)SC1CCCCC1 (racemic)
3. O=c1oc(-c2ccccc2)cc(O)c1C(CC1CC1)SC1CCCC1 (racemic)

output:
1: 480; 2: 147; 3: 69

Below is a list of compounds. For each, state its recorded IC50.
1. O=c1oc(-c2ccccc2)cc(O)c1C(Sc1ccccc1)C1CCCCC1 (racemic)
2. O=c1oc(-c2ccccc2)cc(O)c1C(CC1CCCC1)SC1CCCCC1 (racemic)

output:
2440
541
